target: RSV prefusion F (preF), subtype B (respiratory syncytial virus, subtype B); assay: BLI, IgG
# pKd per record follows
Please treat pKd as minus the base-10 logarithm of the molar concentration.

Solved cases below.
# binder, pKd
measured = [
    ("ADI-20965 (antibody, V domains shown) VH: QVQLVQSGAEVKKPGASVKVSCKASGYNFTNYGISWVRQAPGQGLEWMGWISTSNGNTHYAQKSQGRITLTTDTSTNTAYMEVRSLRSDDTAVYYCAREGPESTYDWYHFDSWGQGTLVTVSS VL: QSVVTQPPSVSVAPGQTAKITCGGNNIGSKTVHWYQLKAGQAPVLVVYDDSDRPSGIPERFSGSNSGNTATLTIRRVEAGDEADYFCQVWESASDHWVFGGGTKLTVL", 9.27),
    ("ADI-14425 (antibody, V domains shown, also called Ab 91) VH: QVQLQESGPGLVKPSETLSLTCTVSGGSVRSGSYYWSWIRQPPGKALEWIGYIYYSGSTNYNPALESRVTISVDTSKNQFSLMLSSVTAADTAVYYCARSAEGLARLYYFDHWGQGTLVTVSS VL: QSVLIQPASVSGSPGQSITISCTGTSSDVGGYNYVSWYQQHPGKAPKLMIHDVSNRPSGVSNRFSGSKSGNTASLTISGLQAEDEADYYCSTYRSSNTLVVFGGGTKLTVL", 7.69),
]

Here is the next item to consider.
Item: ADI-14418 (antibody, V domains shown, also called Ab 84) VH: QVQLVQSGAEVKKPGSSVKVSCKASGGTFTNYNINWVRQAPGQGLQWMGRISPTFAIANYAQKFQGRVTITADKSTSTAYMELSSLRSEDTAVYYCARAPHSGYDLALDYWGQGTLVTVSS VL: DIQMTQSPSTLSASVGDRVTITCRASQSISSWLAWYQQKPGKAPKLLIYEASSLQSGVPSRFSGSGSGTEFTLTITSLQPDDFATYYCQQYNVYPWTFGQGTKVDIK | pKd: 8.80
